B1: Complement factor H (Homo sapiens), P08603 (parent)
chain: MRLLAKIICLMLWAICVAEDCNELPPRRNTEILTGSWSDQTYPEGTQAIYKCRPGYRSLGNVIMVCRKGEWVALNPLRKCQKRPCGHPGDTPFGTFTLTGGNVFEYGVKAVYTCNEGYQLLGEINYRECDTDGWTNDIPICEVVKCLPVTAPENGKIVSSAMEPDREYHFGQAVRFVCNSGYKIEGDEEMHCSDDGFWSKEKPKCVEISCKSPDVINGSPISQKIIYKENERFQYKCNMGYEYSERGDAVCTESGWRPLPSCEEKSCDNPYIPNGDYSPLRIKHRTGDEITYQCRNGFYPATRGNTAKCTSTGWIPAPRCTLKPCDYPDIKHGGLYHENMRRPYFPVAVGKYYSYYCDEHFETPSGSYWDHIHCTQDGWSPAVPCLRKCYFPYLENGYNQNYGRKFVQGKSIDVACHPGYALPKAQTTVTCMENGWSPTPRCIRVKTCSKSSIDIENGFISESQYTYALKEKAKYQCKLGYVTADGETSGSITCGKDGWSAQPTCIKSCDIPVFMNARTKNDFTWFKLNDTLDYECHDGYESNTGSTTGSIVCGYNGWSDLPICYERECELPKIDVHLVPDRKKDQYKVGEVLKFSCKPGFTIVGPNSVQCYHFGLSPDLPICKEQVQSCGPPPELLNGNVKEKTKEEYGHSEVVEYYCNPRFLMKGPNKIQCVDGEWTTLPVCIVEESTCGDIPELEHGWAQLSSPPYYYGDSVEFNCSESFTMIGHRSITCIHGVWTQLPQCVAIDKLKKCKSSNLIILEEHLKNKKEFDHNSNIRYRCRGKEGWIHTVCINGRWDPEVNCSMAQIQLCPPPPQIPNSHNMTTTLNYRDGEKVSVLCQENYLIQEGEEITCKDGRWQSIPLCVEKIPCSQPPQIEHGTINSSRSSQESYAHGTKLSYTCEGGFRISEENETTCYMGKWSSPPQCEGLPCKSPPEISHGVVAHMSDSYQYGEEVTYKCFEGFGIDGPAIAKCLGEKWSHPPSCIKTDCLSLPSFENAIPMGEKKDVYKAGEQVTYTCATYYKMDGASNVTCINSRWTGRPTCRDTSCVNPPTVQNAYIVSRQMSKYPSGERVRYQCRSPYEMFGDEEVMCLNGNWTEPPQCKDSTGKCGPPPPIDNGDITSFPLSVYAPASSVEYQCQNLYQLEGNKRITCRNGQWSEPPKCLHPCVISREIMENYNIALRWTAKQKLYSRTGESVEFVCKRGYRLSSRSHTLRTTCWDGKLEYPTCAKR

Variants of: B1
Settings: with co3_human C3, P01024
Sequence (P01024 whole entry): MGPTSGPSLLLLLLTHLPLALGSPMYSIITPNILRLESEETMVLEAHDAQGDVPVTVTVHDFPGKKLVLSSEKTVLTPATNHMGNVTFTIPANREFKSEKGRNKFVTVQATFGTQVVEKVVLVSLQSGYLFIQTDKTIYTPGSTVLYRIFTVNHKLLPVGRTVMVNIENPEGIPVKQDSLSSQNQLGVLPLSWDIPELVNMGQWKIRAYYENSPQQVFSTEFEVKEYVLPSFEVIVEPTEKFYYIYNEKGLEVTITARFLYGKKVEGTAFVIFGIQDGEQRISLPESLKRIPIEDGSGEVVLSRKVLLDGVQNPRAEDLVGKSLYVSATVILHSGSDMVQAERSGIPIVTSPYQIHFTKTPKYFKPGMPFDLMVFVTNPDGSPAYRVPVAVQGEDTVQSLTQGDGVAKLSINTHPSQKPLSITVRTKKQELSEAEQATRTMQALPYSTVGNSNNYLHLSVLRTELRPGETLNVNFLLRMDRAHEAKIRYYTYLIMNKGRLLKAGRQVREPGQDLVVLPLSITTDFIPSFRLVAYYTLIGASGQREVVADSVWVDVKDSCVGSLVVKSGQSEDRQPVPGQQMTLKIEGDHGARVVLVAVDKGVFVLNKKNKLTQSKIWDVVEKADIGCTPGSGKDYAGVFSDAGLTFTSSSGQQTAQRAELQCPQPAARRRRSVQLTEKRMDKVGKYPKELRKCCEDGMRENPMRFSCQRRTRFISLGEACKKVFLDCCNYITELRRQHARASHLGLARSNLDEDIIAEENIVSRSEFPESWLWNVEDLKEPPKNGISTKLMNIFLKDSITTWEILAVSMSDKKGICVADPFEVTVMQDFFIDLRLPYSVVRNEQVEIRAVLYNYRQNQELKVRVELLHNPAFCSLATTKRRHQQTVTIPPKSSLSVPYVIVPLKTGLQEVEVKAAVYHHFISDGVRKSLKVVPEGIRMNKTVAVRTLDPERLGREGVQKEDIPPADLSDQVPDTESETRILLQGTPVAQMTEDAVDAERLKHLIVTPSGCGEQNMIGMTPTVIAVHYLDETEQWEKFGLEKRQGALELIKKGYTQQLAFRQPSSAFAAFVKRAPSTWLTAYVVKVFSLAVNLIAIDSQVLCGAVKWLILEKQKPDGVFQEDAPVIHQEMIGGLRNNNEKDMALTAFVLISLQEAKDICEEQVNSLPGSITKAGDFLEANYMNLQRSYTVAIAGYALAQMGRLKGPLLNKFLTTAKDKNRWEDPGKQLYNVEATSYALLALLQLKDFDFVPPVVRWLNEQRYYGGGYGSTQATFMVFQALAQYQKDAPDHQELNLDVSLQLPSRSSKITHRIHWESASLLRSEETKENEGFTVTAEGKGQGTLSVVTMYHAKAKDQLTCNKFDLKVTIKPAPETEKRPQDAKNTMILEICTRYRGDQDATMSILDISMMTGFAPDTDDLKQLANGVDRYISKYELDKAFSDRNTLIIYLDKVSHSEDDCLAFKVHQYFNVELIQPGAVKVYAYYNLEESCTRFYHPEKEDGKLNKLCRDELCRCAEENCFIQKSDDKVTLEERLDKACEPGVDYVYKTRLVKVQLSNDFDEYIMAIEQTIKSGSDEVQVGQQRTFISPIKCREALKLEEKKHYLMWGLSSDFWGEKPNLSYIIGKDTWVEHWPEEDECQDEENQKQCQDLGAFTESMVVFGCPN

variant_label | effect of a mutation on the interaction
R1215Q | decreasing interaction
R1203S | decreasing interaction
R1182S | decreasing interaction
